target: AM2 receptor (1321N1 cells transfected with CALCRL+RAMP3) (Homo sapiens, UniProt O60896+Q16602); construct: host or cells: 1321N1 cells; experiment: AM2 receptor inhibition, LANCE cAMP agonist-antagonist competition assay; type: cell-based; conditions: inhibition of AM induced cAMP activation, read-out: AM2 D2 protocol: pIC50 (converted)
Sequence (Q16602 23-461): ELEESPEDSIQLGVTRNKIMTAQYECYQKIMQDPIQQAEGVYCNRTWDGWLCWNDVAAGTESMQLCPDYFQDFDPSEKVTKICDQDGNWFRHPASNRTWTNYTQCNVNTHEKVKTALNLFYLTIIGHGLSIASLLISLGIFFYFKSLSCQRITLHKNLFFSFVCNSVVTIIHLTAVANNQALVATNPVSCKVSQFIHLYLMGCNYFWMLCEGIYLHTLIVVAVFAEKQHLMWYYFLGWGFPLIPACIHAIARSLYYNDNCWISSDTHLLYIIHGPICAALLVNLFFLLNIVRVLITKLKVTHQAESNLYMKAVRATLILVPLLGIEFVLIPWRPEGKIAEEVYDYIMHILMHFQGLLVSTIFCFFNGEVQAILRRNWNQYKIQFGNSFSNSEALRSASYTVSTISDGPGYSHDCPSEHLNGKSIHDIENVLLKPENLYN
Sequence (O60896 24-148): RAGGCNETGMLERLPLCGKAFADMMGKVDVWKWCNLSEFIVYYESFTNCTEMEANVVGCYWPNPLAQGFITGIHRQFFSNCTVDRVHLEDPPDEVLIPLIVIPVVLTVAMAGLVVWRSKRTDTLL
Assign a class from recorded IC50; defined classes: group A (below 2 nM), group B (2 nM to below 20 nM), group C (20 nM or more)

* CCC1(C(=O)N(CC(=O)Nc2ccc3c(c2)C[C@@]2(C3)C(=O)Nc3ncccc32)Cc2ccccc2CNC)CCN(C(=O)N2CCC2)CC1 | group B
* CCC1(C(=O)N(CC(=O)Nc2ccc3c(c2)C[C@@]2(C3)C(=O)Nc3ncccc32)Cc2ccccc2CNC)CCN(C(=O)c2cc(C(C)(C)C)n[nH]2)CC1 | group C
* CCC1(C(=O)N(CC(=O)Nc2ccc3c(c2)C[C@@]2(C3)C(=O)Nc3ncccc32)Cc2ccccc2CNC)CCN(S(=O)(=O)N(C)C)CC1 | group C
* CNCc1ccccc1CN(CC(=O)Nc1ccc2c(c1)C[C@@]1(C2)C(=O)Nc2ncccc21)C(=O)C1(C)CCN(C(=O)C[C@H]2CCNC2)CC1 | group B
* CCC1(C(=O)N(CC(=O)Nc2ccc3c(c2)C[C@@]2(C3)C(=O)Nc3ncccc32)Cc2ccccc2CNC)CCN(C(=O)COCCOCCOC)CC1 | group B
* CCC1(C(=O)N(CC(=O)Nc2ccc3c(c2)C[C@@]2(C3)C(=O)Nc3ncccc32)Cc2ccccc2CNC)CCN(C(=O)N(C)C)CC1 | group A
* CNCc1ccccc1CN(CC(=O)Nc1ccc2c(c1)CC1(C2)C(=O)Nc2ncccc21)C(=O)C1(C)CCN(C(=O)COC)CC1 (stereo not drawn) | group A
* CCC1(C(=O)N(CC(=O)Nc2ccc3c(c2)C[C@@]2(C3)C(=O)Nc3ncccc32)Cc2ccccc2CNC)CCN(C(=O)COCCOCCOCCOCCOC)CC1 | group C
* CNCc1ccccc1CN(CC(=O)Nc1ccc2c(c1)C[C@@]1(C2)C(=O)Nc2ncccc21)C(=O)C1(C)CCN(C(=O)c2ccn[nH]2)CC1 | group B
* CNCc1ccccc1CN(CC(=O)Nc1ccc2c(c1)C[C@@]1(C2)C(=O)Nc2ncccc21)C(=O)C1(C)CCN(C(C)=N)CC1 | group B
* CNCc1ccccc1CN(CC(=O)Nc1ccc2c(c1)C[C@@]1(C2)C(=O)Nc2ncccc21)C(=O)C1(OC)CCN(C(C)=O)CC1 | group C
